src = ChEMBL document CHEMBL1147415

Target: 4-galactosyl-N-acetylglucosaminide 3-alpha-L-fucosyltransferase FUT5 (Homo sapiens)
Assay: Inhibition of Fucosyltransferase 5 by the compound was evaluated; Weak competitive inhibition
propertyName: Ki
The reply must contain the numeric value and, after it, the unit.

Task item: Record CC1OC(CP(=O)(O)OP(=O)(O)OC[C@H]2OC(n3cnc4c(=O)[nH]c(N)nc43)[C@H](O)[C@@H]2O)C(O)C(O)C1O (stereo partly specified) : what is its Ki with 4-galactosyl-N-acetylglucosaminide 3-alpha-L-fucosyltransferase FUT5 (Homo sapiens)?
Reply: 889 µM

---

Target: 4-galactosyl-N-acetylglucosaminide 3-alpha-L-fucosyltransferase FUT5 (Homo sapiens, UniProt Q11128)
Sequence (Q11128 whole entry): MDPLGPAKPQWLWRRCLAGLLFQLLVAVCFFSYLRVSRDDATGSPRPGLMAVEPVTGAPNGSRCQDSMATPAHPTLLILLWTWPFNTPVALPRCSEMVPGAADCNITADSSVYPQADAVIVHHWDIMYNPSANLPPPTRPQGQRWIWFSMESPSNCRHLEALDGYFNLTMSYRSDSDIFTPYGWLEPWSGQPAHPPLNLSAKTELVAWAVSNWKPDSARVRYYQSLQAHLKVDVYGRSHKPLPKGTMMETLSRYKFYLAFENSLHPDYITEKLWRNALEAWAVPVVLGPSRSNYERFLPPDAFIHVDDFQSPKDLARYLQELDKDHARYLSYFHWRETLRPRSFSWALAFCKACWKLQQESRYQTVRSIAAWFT
Test: Inhibition of Fucosyltransferase 5 by the compound was evaluated; Competitive inhibition
propertyName: Ki (µM)
Value expressed in µM; do not type the unit.

Task item: Which Ki is listed for CC1CC(OP(=O)(O)OP(=O)(O)OC[C@H]2OC(n3cnc4c(O)nc(N)nc43)[C@H](O)[C@@H]2O)C(O)C(O)C1O (stereo partly specified) ?
Reply: 67.1
